IC50 values, listed per item
Tested on: K562
Experiment: CCK-8 proliferation assay, K562
Type: cell-based
Conditions: Homo sapiens, CCK-8 kit assay, triplicates, 72 h, read-out: Anti-proliferation activity against cancer cells (IC50), K562

Some molecules with known IC50 results, for comparison:
[[record]]
molecule = "O=C(O)c1ccc(-n2cc(C(=O)c3cc(Cl)ccc3O)cn2)cc1 [CK-67]"
assayed_target = "K562"
result = "33.4 µM"

[[record]]
molecule = "N#Cc1ccc(-n2cc(C(=O)c3ccccc3O)cn2)cc1 [CK-38]"
assayed_target = "K562"
result = "> 50 µM"

[[record]]
molecule = "Cc1ccc(O)c(C(=O)c2cnn(-c3ccc(C(=O)O)cc3)c2)c1 [CK-54]"
assayed_target = "K562"
result = "> 50 µM"


# evaluate next
Please give the documented IC50 of O=C(O)c1ccc(-n2cc(C(=O)c3ccc(Cl)cc3O)cn2)cc1 [CK-88]
48.2 µM

----------
Assay: MTT cytotoxicity assay, HCT116
Assay type: cell-based
Conditions: human, HCT116 cells, triplicates, read-out: Cytotoxicity against cancer cells (IC50), HCT116
measure: IC50 at 72 h

Completed entries (count: 5):
[[record]]
smiles_record = "O=C(c1cnn(-c2ccccc2F)c1)c1ccccc1O"
measure = "IC50 at 72 h"
result = "> 50 µM"

[[record]]
smiles_record = "COc1cccc(O)c1C(=O)c1cnn(-c2ccc(C(=O)O)cc2)c1"
measure = "IC50 at 72 h"
result = "> 50 µM"

[[record]]
smiles_record = "O=C(O)c1ccc(-n2cc(C(=O)c3ccc(Br)cc3O)cn2)cc1"
measure = "IC50 at 72 h"
result = "36.4 µM"

[[record]]
smiles_record = "O=C(O)c1ccc(-n2cc(C(=O)c3c(O)ccc4ccccc34)cn2)cc1"
measure = "IC50 at 72 h"
result = "33.3 µM"

[[record]]
smiles_record = "Cc1ccccc1-n1cc(C(=O)c2ccccc2O)cn1"
measure = "IC50 at 72 h"
result = "26 µM"


Provide measured IC50 at 72 h value, entry: O=C(c1cnn(-c2ccccc2C(=O)O)c1)c1ccccc1O
> 50 µM

Fill in reported IC50 at 72 h for this entry: O=C(O)c1ccc(-n2cc(C(=O)c3ccc(Cl)cc3O)cn2)cc1
> 50 µM

Name the recorded IC50 at 72 h of the item O=C(O)c1ccc(-n2cc(C(=O)c3cc(F)cc(F)c3O)cn2)cc1 in your answer.
> 50 µM

Give reported IC50 at 72 h value for O=C(c1cnn(-c2ccc(Cl)cc2)c1)c1ccccc1O
> 50 µM

Identify IC50 at 72 h associated with the compound O=C(O)c1ccc(-n2cc(C(=O)c3cc(F)ccc3O)cn2)cc1
19.3 µM

Name the recorded IC50 at 72 h of the compound listed here: Cc1ccc(O)c(C(=O)c2cnn(-c3ccc(C(=O)O)cc3)c2)c1
> 50 µM

Annotate the compound O=C(O)c1ccc(-n2cc(C(=O)c3cc(Cl)cc(Cl)c3O)cn2)cc1 with its measured IC50 at 72 h.
> 50 µM

----------
Assay: MTT cytotoxicity assay, JAR
Type: cell-based
Details: human, JAR cells, triplicates, read-out: Cytotoxicity against cancer cells (IC50), JAR
Experimental: JAR, K562, and HCT116 cells were seeded in 96-well plates (3500 cells/well) and incubated for 8 h. The medium with different concentrations of compounds (100, 33.3, 11.1, 3.7, 1.2, and 0.4 μM) was added to the 96-well plates. Data were normalized to the medium with 0.1% DMSO. […] After the medium was discarded, DMSO (150 μL) was added per well, and the absorbance was measured at 492 nm by a plate reader (TECAN Spark).
measure: IC50 at 72 h (µM)
Provide only the numeric value, understood in µM.

[[record]]
smiles_record = "O=C(O)c1ccc(-n2cc(C(=O)c3cccc(Cl)c3O)cn2)cc1"
unit_abbrev = "µM"
result_number = 40.2

[[record]]
smiles_record = "O=C(O)c1ccc(-n2cc(C(=O)c3cc(F)ccc3O)cn2)cc1"
unit_abbrev = "µM"
result_number = 41.2

[[record]]
smiles_record = "Cc1cc(O)c(C(=O)c2cnn(-c3ccc(C(=O)O)cc3)c2)cc1Cl"
unit_abbrev = "µM"
result_number = 31.6


Now look at this one.
Using the record for O=C(c1cnn(-c2ccc(C(F)(F)F)cc2)c1)c1ccccc1O , state its measured IC50 at 72 h.
37
